Record: pKi reported on Adenosine receptor A2a (Homo sapiens, UniProt P29274).
Sequence (P29274 whole entry): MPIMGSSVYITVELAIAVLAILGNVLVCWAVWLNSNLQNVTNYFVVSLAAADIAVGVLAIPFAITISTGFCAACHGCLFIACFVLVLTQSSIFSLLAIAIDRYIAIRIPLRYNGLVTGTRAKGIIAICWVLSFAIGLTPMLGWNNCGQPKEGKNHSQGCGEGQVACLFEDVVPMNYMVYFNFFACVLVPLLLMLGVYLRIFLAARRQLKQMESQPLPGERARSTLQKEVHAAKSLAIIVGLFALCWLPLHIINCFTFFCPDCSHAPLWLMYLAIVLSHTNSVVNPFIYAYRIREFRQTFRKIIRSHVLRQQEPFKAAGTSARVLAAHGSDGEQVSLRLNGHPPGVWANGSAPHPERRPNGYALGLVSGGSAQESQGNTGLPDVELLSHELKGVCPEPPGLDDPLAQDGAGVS
The scale used: pKi is minus the common logarithm of the concentration in molar units.

smiles-entry	pKi
OCCNc1nc(-c2cccs2)c2sccc2n1	6.76

Q: Lab note: need pKi with Adenosine receptor A2a (Homo sapiens, UniProt P29274) for entry OCCNc1nc(-c2ccco2)c2sccc2n1 , please look it up.
Result: 6.69

Q: Give the reported pKi for CCc1nc(-c2nccs2)c2sccc2n1 (system: Adenosine receptor A2a (Homo sapiens, UniProt P29274)).
Result: 8.80

Q: Query the reported pKi for Adenosine receptor A2a (Homo sapiens, UniProt P29274); item: CC(C)(C)c1nc(-c2nccs2)c2sccc2n1
Result: 8.51

====

Below, each of the compounds is paired with its reported pKi value.
# target-entity: Adenosine receptor A2b (Homo sapiens, UniProt P29275)
# Sequence (P29275 whole entry): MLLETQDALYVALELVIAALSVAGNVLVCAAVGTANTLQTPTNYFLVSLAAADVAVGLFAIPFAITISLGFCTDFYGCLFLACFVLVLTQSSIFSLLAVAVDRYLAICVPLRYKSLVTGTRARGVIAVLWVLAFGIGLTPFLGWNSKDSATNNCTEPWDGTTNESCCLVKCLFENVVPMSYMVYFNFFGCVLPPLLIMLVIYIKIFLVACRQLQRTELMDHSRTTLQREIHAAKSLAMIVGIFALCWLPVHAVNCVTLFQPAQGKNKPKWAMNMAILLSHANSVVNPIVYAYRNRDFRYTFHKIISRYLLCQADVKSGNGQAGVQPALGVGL
Kindly note that pKi refers to -log10 of the concentration in mol/L and answer with the value alone.

These solved cases illustrate the format of a correct answer.
smiles-entry	pKi
CC(C)c1nc(-c2nccs2)c2sccc2n1	6.06
c1csc(-c2nc(C3CC3)nc3ccsc23)n1	6.04

In the following, a different compound is considered.
Q: Tell me reported pKi for OC[C@@H]1CCCN1c1nc(-c2nccs2)c2sccc2n1 , tested with Adenosine receptor A2b (Homo sapiens, UniProt P29275).
Result: 5.61

====

# target-entity: Adenosine receptor A1 (Homo sapiens, UniProt P30542)
# Sequence (P30542 whole entry): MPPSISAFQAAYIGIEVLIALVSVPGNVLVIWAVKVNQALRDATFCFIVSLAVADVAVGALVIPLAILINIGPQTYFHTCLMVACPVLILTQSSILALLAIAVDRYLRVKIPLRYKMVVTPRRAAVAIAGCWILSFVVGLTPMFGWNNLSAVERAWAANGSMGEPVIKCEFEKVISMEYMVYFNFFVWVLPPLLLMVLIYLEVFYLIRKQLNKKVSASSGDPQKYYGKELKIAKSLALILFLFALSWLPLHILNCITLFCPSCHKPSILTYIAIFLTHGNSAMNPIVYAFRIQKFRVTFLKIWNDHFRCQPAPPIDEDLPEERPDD
pKi: −log10 of the molar value.
So basically: pKi at 6 or higher? That is 1. Lower than 6? That is 0.

smiles-entry	assigned-label
CC(C)c1nc(-c2nccs2)c2sccc2n1	1
CCc1nc(-c2ncc[nH]2)c2sccc2n1	0
OC[C@@H]1CCCN1c1nc(-c2nccs2)c2sccc2n1	1

Q: Textbook exercise: given the entry CCc1nc(-n2nccn2)c2sccc2n1 , state whether its pKi is greater than or equal to 6.
Result: 0

Q: Identify whether the reported pKi of the following molecule is 6 or greater: Clc1nc(-c2cccs2)c2sccc2n1
Result: 0

Q: Is it the case that CCc1nc(-c2ccoc2)c2sccc2n1 has pKi reaching or exceeding 6?
Result: 0

====

# target-entity: Adenosine receptor A2a (Homo sapiens)
pKi: −log10 of the molar value.
Param threshold (8) applies to pKi; output y when value >= threshold, n when value < threshold.

Example entries begin here.
smiles-entry	target-entity	assigned-label
Cc1cnc(-c2nc(N(C)C)nc3ccsc23)s1	Adenosine receptor A2a (Homo sapiens)	y
CN(C)c1nc(-c2ccccn2)c2sccc2n1	Adenosine receptor A2a (Homo sapiens)	n
OCCNc1nc(-c2nccs2)c2sccc2n1	Adenosine receptor A2a (Homo sapiens)	n

Read the next record carefully.
Q: Kindly determine if pKi recorded for CN(C)c1nc(-c2cc3ccccc3s2)c2sccc2n1 is above or exactly 8.
Result: n

====

# target-entity: Adenosine receptor A2a (Homo sapiens)
Below is a list of entries, each paired with its recorded Ki value.
Answer format: numeric, nM implied, no suffix.

smiles-entry	target-entity	Ki, nM
CN(C)c1nc(-c2cn[nH]c2)c2sccc2n1	Adenosine receptor A2a (Homo sapiens)	3080
CCNc1nc(-c2ccco2)c2sccc2n1	Adenosine receptor A2a (Homo sapiens)	58

Q: Report Ki for CN(C)c1nc(-c2ccco2)c2sccc2n1 tested on Adenosine receptor A2a (Homo sapiens).
Result: 60

Q: Recall the recorded Ki for CN(C)c1nc(-c2nccs2)c2sccc2n1 with Adenosine receptor A2a (Homo sapiens) and state it.
Result: 2.3

Q: Lab request: please report Ki under test system Adenosine receptor A2a (Homo sapiens) for CN(C)c1nc(-c2ncc[nH]2)c2sccc2n1
Result: 299

Q: Find the measured Ki: item CN(C)c1nc(-c2nccn2C)c2sccc2n1 , target or system Adenosine receptor A2a (Homo sapiens).
Result: 14

Q: Form field: Ki recorded for CCc1nc(-c2ccoc2)c2sccc2n1 with Adenosine receptor A2a (Homo sapiens) (enter value)
Result: 681
